koff listing for selected binders.
- Target under test: T1, recombinant cynomolgus 4-1BB extracellular domain protein (cynomolgus, UniProt A9YYE7 24-186)
- T1 construct: Analyte in the Octet assay
- T1 sequence: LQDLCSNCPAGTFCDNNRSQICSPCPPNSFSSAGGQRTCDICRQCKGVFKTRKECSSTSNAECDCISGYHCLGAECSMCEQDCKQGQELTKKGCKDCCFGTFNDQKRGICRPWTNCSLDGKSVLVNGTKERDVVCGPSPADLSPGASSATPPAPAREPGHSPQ
- Test name: Octet BLI; chimeric IgG from transfection supernatant on anti-human Fc biosensor; recombinant cynomolgus 41BB; column kdis(1/s) Cynomolgus
Value type: koff

• 459F1 (antibody, human IgG1, kappa, V domains shown, one of the 34 chimeric antibodies; rabbit variable regions on human IgG1 and human kappa; also called 459F1 chimeric rabbit/human IgG) VH: ESLEESGGDLVKPGASLTLTCTASGIDFSRRYYMCWVRQAPGKGLEWIACMYTGSRDTPHYASWAKGRFTISQTSSTTVTLQMTSLTAADTATYFCAREGNLWGPGTLVTVSS VL: AQVLTQTASPVSAAVGGTVTINCQSSQSVYSNWFSWYQQKPGQPPKLLIYSASTLASGVPSRFKGSGSGTQFTLTISDLECDDAATYYCAGGYNTVTDTFAFGGGTEVEFKR = 0.0075 s⁻¹
• 418H5 (antibody, human IgG1, kappa, V domains shown, one of the 34 chimeric antibodies; rabbit variable regions on human IgG1 and human kappa; also called 418H5 chimeric rabbit/human IgG) VH: QSLEESGGRLVTPGTPLTLTCTVSGIDLSAYHMSWVRQAPGKGLEYIGMIGSSGTIHYANWAKGRFTISKTSTTVDLKITSPTTEDTATYFCARDSYNSDYAFNLWGPGTLVTVSS VL: AQVLTQTPASVSATVGSTVTISCQSSPSVYKNNQLAWYQQKPGQPPKLLIYLASTLASGVPSRFKGSGSGTEFTLTISDLECADAATYYCAGGYSSSSDTAFGGGTEVEVKR = 0.0016 s⁻¹
• 418E10 (antibody, human IgG1, kappa, V domains shown, one of the 34 chimeric antibodies; rabbit variable regions on human IgG1 and human kappa; also called 418E10 chimeric rabbit/human IgG) VH: QSLEESGGRLVTPGTPLTLTCTASDFSLSTYYMSWVRQAPGKGLEWIGSIYDSGAAYYATWAKGRFTISRTSTTVDLRMTSLTAADTATYFCARDPINNAIWGQGTLVTVSS VL: ALVMTQTPSPVSAAVGGTVTINCQASQSIGSNLNWYQQKPGQPPKLLIYYVSTLASGVPSRFKGSGSGTEYTLTISGVQCDDAATYYCLGVWNYWGDDGTAFGGGTEVEVKR = 0.0015 s⁻¹
• 413F3 (antibody, human IgG1, kappa, V domains shown, one of the 34 chimeric antibodies; rabbit variable regions on human IgG1 and human kappa; also called 413F3 chimeric rabbit/human IgG) VH: QSLEESGGDLVKPEGSLTLTCTGSGIDFSSNYMCWVRQAPGKGLEWIACIYGDSSDNSYSASWAKGRFTISKTSSTTVTLQMTSLTAADTATYFCARSGYSYLGYFNLWGPGTLVTVSS VL: DVVMTQTPASVEAAVGGTVTIKCQASQSIYSNLAWYQQKPGQPPKLLIYSTSTLASGVPSRFSGSGSGTEFTLTISDLECADAATYYCQNYYGSSTDSYGNPFGGGTEVVFKR = 0.00079 s⁻¹
• 466F6 (antibody, human IgG1, kappa, V domains shown, one of the 34 chimeric antibodies; rabbit variable regions on human IgG1 and human kappa; also called 466F6 chimeric rabbit/human IgG) VH: RSLEESGGRLVTPGTPLTLTCTASGFTISSYHMQWVRQAPGKGLEYIGTISSGGNVYYASWARGRFTISRPSSTTVDLKMTSLTTEDTATYFCARDSGYSDPMWGPGTLVTVSS VL: DVVMTQTPASVSEPVGGTVTIKCQASQNIRTYLSWYQQKPGQRPKLLIYAAANLASGVPSRFSGSRSGTEFTLTISDLECADAATYYCQCTYLGTDYVGGAFGGGTEVEFKR = 0.0026 s⁻¹
